MEASUREMENT_PROTOCOL: Logistic regression classification model: probability that a drug is associated with IDILI
Parameters: species or system human
CONDITION_PARAMETERS: probability that drug is associated with IDILI; covariates Deltadiff, EC50 VEH, EC50 TNF, Delta VEH, Cmax; optimal cutoff 0.46
PARAMETER: Estimated probability
Lab note: jot the number down without any unit.

// known answers, use as guide
{"COMPOUND": "CS(=O)(=O)c1ccc(C2=C(c3ccccc3)C(=O)OC2)cc1", "Estimated probability": 0.1278}
{"COMPOUND": "COc1cccc2c1C(=O)c1c(O)c3c(c(O)c1C2=O)C[C@@](O)(C(=O)CO)C[C@@H]3O[C@H]1C[C@H](N)[C@H](O)[C@H](C)O1", "Estimated probability": 0.8839}
{"COMPOUND": "NNC(=O)c1ccncc1", "Estimated probability": 0.7562}
{"COMPOUND": "O=C(O)[C@H]1/C(=C/CO)O[C@@H]2CC(=O)N21 [Clavulanate]", "Estimated probability": 0.9509}
{"COMPOUND": "CN(C)CCCN1c2ccccc2Sc2ccc(Cl)cc21", "Estimated probability": 0.961}

Return value of Estimated probability for input CS(=O)(=O)Nc1ccc([N+](=O)[O-])cc1Oc1ccccc1 [Nimesulide] , no commentary. 1

Dear colleague, please send me the reported Estimated probability for `COc1ccc2cc([C@H](C)C(=O)O)ccc2c1` when you can. 0.8589

Value source: patent US20200003760A1
